Reference source: the Human Domainome abundance scans (Beltran et al. 2025)

B1: DnaJ homolog subfamily C member 2, residues 451 to 503; numbered along this chain, Q99543 (parent)
chain: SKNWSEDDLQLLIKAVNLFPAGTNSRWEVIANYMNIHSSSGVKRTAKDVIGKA

Variants of: B1
Assay info: abundance fitness (aPCA) (normalised: wild type 0, dead -1); higher = more abundant; growth selection in yeast, the domain comes from the species named
Setup conditions: Homo sapiens
Returns the class for an entry based on its abundance fitness. Class ranges: bucket 1 = under -0.5, bucket 2 = from -0.5 up to -0.2, bucket 3 = -0.2 and over

Previously resolved entries follow.
seq_text="SKNWSEDDLQLLIKAVNLFPAGTNSRWEVIANYMNIHSSSGVKRTAKKVIGKA [D48K]" class_assignment="bucket 1"
seq_text="SKNWSEDDLQLLNKAVNLFPAGTNSRWEVIANYMNIHSSSGVKRTAKDVIGKA [I13N]" class_assignment="bucket 3"
seq_text="SKNWSEDDLQLLIKAVNLFPAGTMSRWEVIANYMNIHSSSGVKRTAKDVIGKA [N24M]" class_assignment="bucket 3"
seq_text="SKNWSEDQLQLLIKAVNLFPAGTNSRWEVIANYMNIHSSSGVKRTAKDVIGKA [D8Q]" class_assignment="bucket 1"
seq_text="SKNWSEDDLQLAIKAVNLFPAGTNSRWEVIANYMNIHSSSGVKRTAKDVIGKA [L12A]" class_assignment="bucket 1"
seq_text="SKGWSEDDLQLLIKAVNLFPAGTNSRWEVIANYMNIHSSSGVKRTAKDVIGKA [N3G]" class_assignment="bucket 2"
seq_text="SKNWSEDDLQLLIKAVNLFPAGTNSRWEVIANYMNIHSHSGVKRTAKDVIGKA [S39H]" class_assignment="bucket 3"
seq_text="SKNWSEDDLQLLIKAVNLFPACTNSRWEVIANYMNIHSSSGVKRTAKDVIGKA [G22C]" class_assignment="bucket 3"
seq_text="SKNWSEDDLQLLIKAVNLFPAGTNSRWEVIALYMNIHSSSGVKRTAKDVIGKA [N32L]" class_assignment="bucket 2"
seq_text="SKNWSEDDLQLLIKAVNLFPAGTNSRWEVIANYMNIHSSNGVKRTAKDVIGKA [S40N]" class_assignment="bucket 3"

Kindly state the category for this variant: SKNWSEDDLQLLIKAVNLFPAGTNSRWEVIANYMNIHSSSGVKRTYKDVIGKA [A46Y] bucket 2

Category lookup for the variant SKNWSEDDLTLLIKAVNLFPAGTNSRWEVIANYMNIHSSSGVKRTAKDVIGKA [Q10T] bucket 2
